src = ChEMBL document CHEMBL4680245

pIC50: −log10 of the molar value.
// each record: one item and its pIC50 for Lysine-specific histone demethylase 1A (Homo sapiens)
measurement-name: pIC50

INSERT INTO assay_data (molecular_string, measurement_name, observed_measurement) VALUES
  ('Cn1c(C(=O)Nc2cccc3c2N(Cc2ccc(OCc4cccc([N+](=O)[O-])c4)cc2)CCC3)cc2sccc21', 'pIC50', '< 4.30'),
  ('O=C(Nc1cccc2c1N(Cc1ccc(OC3CCNCC3)cc1)CCC2)c1ccc(C(F)(F)F)nc1', 'pIC50', '< 7.30'),
  ('Cn1c(C(=O)Nc2cccc3c2N(Cc2ccc(OCc4ccc(C(N)=O)cc4)cc2)CCC3)cc2sccc21', 'pIC50', '< 4.30'),
  ('Cn1c(C(=O)Nc2cccc3c2N(Cc2ccc(OCc4cccc(C#N)c4)cc2)CCC3)cc2sccc21', 'pIC50', '< 4.30'),
  ('Cn1c(C(=O)Nc2cccc3c2N(Cc2ccc(OCc4ccc(N)cc4)cc2)CCC3)cc2sccc21', 'pIC50', '< 4.30');
